B1: GNB5 (parent)
chain: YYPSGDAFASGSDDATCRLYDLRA

Variants of: B1
ASSAY NAME: protein stability index of a GFP-peptide fusion (GPS, HEK-293T) (PSI 1-6); higher = more stable;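 note: lentivirally expressed fusions sorted by FACS into six bins by GFP to DsRed ratio, PSI derived from sequencing read proportions per bin multiplied by bin number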
CONDITIONS USED: c terminus: a fixed tail appended

VARIANT ID	protein stability index
C17V	2.85
Y2K	4.08
S4H	2.87
S12P	2.17
Y1C	3.3
Y2M	2.48
A9I	2.12
A9P	3.06
A15H	2.05
A24R	2.41
D6F	2.14
